Biological target: T1, 4A
T1 construct: also called HLA-A2 / point-mutant NY-ESO peptide 4A complex on T2 cells
Assay: flow cytometry on peptide-pulsed T2 cells, scFv 100 nM
Attribute: standardized gMFI
Kindly provide the number alone.

| binder | result number |
| --- | --- |
| NYC-0003 (scFv, not shown: small tags and cut ends, also called 3M4E5 scFv; NYC-0003 tag adduct) scFv: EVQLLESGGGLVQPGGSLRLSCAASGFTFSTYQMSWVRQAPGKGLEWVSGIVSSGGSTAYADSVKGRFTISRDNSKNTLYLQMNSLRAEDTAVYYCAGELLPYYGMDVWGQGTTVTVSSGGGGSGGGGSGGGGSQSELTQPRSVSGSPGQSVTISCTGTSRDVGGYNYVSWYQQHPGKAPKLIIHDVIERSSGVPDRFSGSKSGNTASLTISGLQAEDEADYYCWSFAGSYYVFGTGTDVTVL | 0.76 |

Look up standardized gMFI: NYA-2061 (scFv, also called NYA-2061 tag adduct) scFv: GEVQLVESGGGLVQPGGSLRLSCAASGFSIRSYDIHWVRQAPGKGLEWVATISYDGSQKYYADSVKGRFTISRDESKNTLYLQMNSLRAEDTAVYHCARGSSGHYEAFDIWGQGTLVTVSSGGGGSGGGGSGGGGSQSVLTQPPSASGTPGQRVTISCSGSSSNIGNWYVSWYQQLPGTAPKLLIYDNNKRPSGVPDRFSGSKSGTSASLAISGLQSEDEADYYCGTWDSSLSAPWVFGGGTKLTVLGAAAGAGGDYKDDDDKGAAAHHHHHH
0.59
